system: SF-539 CNS; assay: NCI tumour cell line growth inhibition, 48 h
Give TGI for every item shown.

Problem: Could you share which TGI value was measured for O=C1Oc2cc(O)cc(/C=C/c3ccc(O)cc3)c2[C@@]12c1c(O)cc(O)cc1OC2c1cccc(O)c1 (stereo not given in full) ?
Result: > 100 µM

Problem: Could you share which TGI value was measured for CC(C)CC(NC(=O)OC(C)(C)C)C(=O)Nc1ccc(Nc2nc(F)nc(-c3c4ccccc4cn3C)n2)cc1 (stereo not given) ?
Result: > 100 µM

Problem: Could you share which TGI value was measured for O=C1c2ccccc2S(=O)(=O)c2cc(-c3nn[nH]n3)ccc21 ?
Result: > 100 µM

Problem: Could you share which TGI value was measured for COC(=O)/C=C/c1cc2c(cc1-c1c(C(=O)O)cc(OC)c(OC)c1OC)OCO2 ?
Result: > 10 µM

Problem: Could you share which TGI value was measured for Nn1c(Cc2ccc([N+](=O)[O-])cc2)n[nH]c1=O ?
Result: > 100 µM
